// provenance: patent US10138229B2

Target: full-length human His-tagged BTK (Homo sapiens (Human))
Sequence (Q06187 whole entry): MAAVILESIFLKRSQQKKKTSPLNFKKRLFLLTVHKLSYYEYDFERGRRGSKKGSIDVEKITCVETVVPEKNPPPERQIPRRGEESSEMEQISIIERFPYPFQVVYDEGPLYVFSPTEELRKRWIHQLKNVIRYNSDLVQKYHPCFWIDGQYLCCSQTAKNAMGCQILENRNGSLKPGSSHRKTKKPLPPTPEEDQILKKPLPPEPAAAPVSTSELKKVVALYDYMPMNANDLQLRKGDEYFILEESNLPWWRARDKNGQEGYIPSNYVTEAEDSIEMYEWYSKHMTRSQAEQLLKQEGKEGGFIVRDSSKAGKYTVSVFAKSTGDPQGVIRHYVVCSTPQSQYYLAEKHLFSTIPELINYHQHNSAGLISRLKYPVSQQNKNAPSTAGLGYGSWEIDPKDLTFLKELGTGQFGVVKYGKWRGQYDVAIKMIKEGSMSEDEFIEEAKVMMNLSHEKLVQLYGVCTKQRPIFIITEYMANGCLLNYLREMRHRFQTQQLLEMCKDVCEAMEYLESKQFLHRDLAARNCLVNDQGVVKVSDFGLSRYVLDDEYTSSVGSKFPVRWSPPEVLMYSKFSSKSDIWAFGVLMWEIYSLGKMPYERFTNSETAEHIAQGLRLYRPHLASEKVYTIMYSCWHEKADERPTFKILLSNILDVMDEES
endpoint: IC50 (nM)

compound	output_unit	numeric_readout
CC#CC(=O)N1CC[C@]2(C1)C[C@@H](n1nc(-c3ccc(C(F)(F)F)cc3)c(C(N)=O)c1N)C2	nM	29
C=CC(=O)N1CC[C@]2(C1)C[C@H](n1nc(-c3cccc(OC)c3)c(C(N)=O)c1N)C2	nM	7.3

[a] C=CC(=O)N1CCC[C@H]1Cc1nc(-c2ccc(Oc3ccccc3)cc2)c(C(N)=O)s1
[b] C=CC(=O)N1CCC2(CC(n3nc(-c4ccc(OCCC)cc4)c(C(N)=O)c3N)C2)C1 (single isomer, unassigned)
Exam item: Identify the item whose IC50 is the smaller number: a or b Bench note: the answer is the label of the chosen record.
Marked response: a
